The origin of these recorded values is a melting point compilation (Tetko et al.; mined from patent text by program, amines drawn as free bases though some values may be those of a salt).

Some compounds, each annotated with its measured melting point.
value-type: melting point

[[record]]
smiles_repr = "COC(=O)c1ccc(O)c(C(=O)CC(=O)c2cc(C)ccc2OC)c1"
value_type = "melting point"
recorded_result = "145 to 147 °C"

[[record]]
smiles_repr = "OCc1ccc(-c2ccc3nnn(Cc4ccc(F)cc4)c3n2)cc1"
value_type = "melting point"
recorded_result = "210 to 213 °C"

[[record]]
smiles_repr = "CCOC(=O)c1cnoc1-c1ccc(Cl)cc1"
value_type = "melting point"
recorded_result = "58 to 60 °C"

[[record]]
smiles_repr = "Cc1cc(SC(C)C)c(NC(=O)CCCSc2nc3c(C)c(Cl)cc(C(C)C)c3o2)c(SC(C)C)n1"
value_type = "melting point"
recorded_result = "141 to 143 °C"

[[record]]
smiles_repr = "Cc1ccc2nc(N3CCN(c4ncccc4Cl)CC3)[nH]c2c1"
value_type = "melting point"
recorded_result = "258 to 259 °C"

[[record]]
smiles_repr = "CCCCCCCCCCCCCc1c(C(F)(F)F)noc1NS(=O)(=O)c1ccc(-c2ccccc2)cc1"
value_type = "melting point"
recorded_result = "115 to 116 °C"

[[record]]
smiles_repr = "NC1=C2C(=Nc3ccccc3S2(=O)=O)c2ccccc2C1=O"
value_type = "melting point"
recorded_result = "264 to 266 °C"

[[record]]
smiles_repr = "C=CCOC(=O)C1=C(C)NC(C)=C(C(=O)OCC=C)C1c1ccccc1Cl"
value_type = "melting point"
recorded_result = "98 to 99 °C"

[[record]]
smiles_repr = "COc1cc(C)c2c(Cl)c(OC)ccc2n1"
value_type = "melting point"
recorded_result = "97 to 100 °C"

[[record]]
smiles_repr = "CS(=O)(=O)c1cc([N+](=O)[O-])c(C(N)=O)cc1N1CC1"
value_type = "melting point"
recorded_result = "222 to 224 °C"

[[record]]
smiles_repr = "Cc1[nH]cnc1CSCCNc1[nH]cc(-c2ccccc2)c1[N+](=O)[O-]"
value_type = "melting point"
recorded_result = "182 to 184 °C"

[[record]]
smiles_repr = "NC(=O)CC[C@H](Nc1ccc(CC(=O)O)cc1)C(=O)O"
value_type = "melting point"
recorded_result = "198 to 200 °C"

[[record]]
smiles_repr = "CC(=O)N[C@@H](Cc1ccccc1)C[C@H](O)[C@H](Cc1ccccc1)N(Cc1ccccc1)Cc1ccccc1"
value_type = "melting point"
recorded_result = "84 to 86 °C"

[[record]]
smiles_repr = "CC[C@H](C)[C@H](Nc1nc(OC)ns1)C(=O)N1CCC[C@H]1C(=O)OC"
value_type = "melting point"
recorded_result = "129 to 130 °C"


---

In this section we review reported melting point values for a set of compounds.
value-type: melting point

[[record]]
compound = "CN(C)C(=O)c1c(-c2ccc(F)cc2)ccc2ccccc12"
value_type = "melting point"
recorded_result = "103 to 104 °C"

[[record]]
compound = "COc1ccc(/C=C/c2cnccn2)cc1OC1CCCC1"
value_type = "melting point"
recorded_result = "81 to 83 °C"

[[record]]
compound = "CC(=O)NC(=O)C(SC(C)=O)c1ccccc1 (configuration not stated)"
value_type = "melting point"
recorded_result = "96 °C"

[[record]]
compound = "COC(=O)CCCC(=O)N(C)CCc1c[nH]c2ccccc12"
value_type = "melting point"
recorded_result = "101 to 102 °C"

[[record]]
compound = "COc1cc(P(c2ccccc2)c2ccccc2)c(Br)c(OC)n1"
value_type = "melting point"
recorded_result = "150 to 151 °C"

[[record]]
compound = "Clc1cc(Cl)n2nc(SCc3ccccc3)nc2c1"
value_type = "melting point"
recorded_result = "88 to 89 °C"

[[record]]
compound = "Cc1nc(N2CCN(Cc3ccc4nsnc4c3)C2=O)sc1C(=O)NCc1cccnc1"
value_type = "melting point"
recorded_result = "105 to 107 °C"

[[record]]
compound = "CCOC(=O)c1cnc(O)nc1NCc1ccc(OC)c(Cl)c1"
value_type = "melting point"
recorded_result = "117 to 122 °C"

[[record]]
compound = "COC(=O)C(Cc1cc([N+](=O)[O-])ccc1Cl)C(=O)OC"
value_type = "melting point"
recorded_result = "72 to 74 °C"

[[record]]
compound = "CC(C)(NC(=O)c1ccc([N+](=O)[O-])cc1)C(=O)CCl"
value_type = "melting point"
recorded_result = "181 to 182 °C"

[[record]]
compound = "Cc1cc(OCc2ccccc2)cc(=O)o1"
value_type = "melting point"
recorded_result = "90 to 91 °C"

[[record]]
compound = "CCOC(=O)c1cc(O)cc2nc(-c3ccc(O)cc3)oc12"
value_type = "melting point"
recorded_result = "305 to 307 °C"

[[record]]
compound = "CC(C)c1ccc2c(c1)c(Sc1nc3cc(Cl)ccc3s1)c(CC(C)(C)C(=O)O)n2Cc1ccc(Cl)cc1"
value_type = "melting point"
recorded_result = "154 to 156 °C"

[[record]]
compound = "COC(=O)C1CC2c3cccc4c3C(CN4)CC2N(C)C1 (configuration not stated)"
value_type = "melting point"
recorded_result = "110 to 120 °C"

[[record]]
compound = "Cc1ccc(C(=O)NCC2CCN(C[C@H]3COc4ccc(Cl)cc4O3)CC2)c(N)n1"
value_type = "melting point"
recorded_result = "160 to 163 °C"

[[record]]
compound = "CCc1nc2c(cnn2CC)c(NC2CCOCC2)c1CNC(=O)c1cc(C)cc(C(=O)NCc2ccc(Cl)c(Br)c2)c1"
value_type = "melting point"
recorded_result = "212 to 214 °C"

[[record]]
compound = "CC(C)(C)OC(=O)COC1=CC(=NS(=O)(=O)c2cccs2)c2ccccc2C1=O"
value_type = "melting point"
recorded_result = "153 to 155 °C"

[[record]]
compound = "COC(=O)c1c(C(=O)OC)c(-c2ccc(OC)cc2)n2c1Cc1cc(OC)ccc1-2"
value_type = "melting point"
recorded_result = "240 to 242 °C"

[[record]]
compound = "COc1ccc(-c2cc(COS(C)(=O)=O)c(=O)n(Cc3ccc(Cl)cc3)n2)cc1F"
value_type = "melting point"
recorded_result = "156 to 157 °C"

[[record]]
compound = "CCc1nc2c(C)cc(C)nc2n1-c1ccc(CC(C)NC(=O)NS(=O)(=O)c2ccc(C)cc2)cc1 (configuration not stated)"
value_type = "melting point"
recorded_result = "128 °C"

[[record]]
compound = "O=[N+]([O-])c1cccc2c(CO)ccnc12"
value_type = "melting point"
recorded_result = "148 °C"

[[record]]
compound = "CCCCCCC#CCC#CCC#CCC#CCCCC(=O)NO"
value_type = "melting point"
recorded_result = "85 to 88 °C"

[[record]]
compound = "O=[N+]([O-])c1ccc2oc(-c3ccco3)nc2c1"
value_type = "melting point"
recorded_result = "175 to 177 °C"

[[record]]
compound = "COC(=O)c1ccc(Oc2ccc([N+](=O)[O-])cc2C(=O)OC)cc1"
value_type = "melting point"
recorded_result = "103 to 105 °C"

[[record]]
compound = "COC(=O)C1=CC(=O)CCC1c1cccs1 (racemic)"
value_type = "melting point"
recorded_result = "69 °C"

[[record]]
compound = "CCCc1c(OCCCCCOc2ccc(C(=O)CCC(=O)O)cc2CCC(=O)O)ccc2c1OCCC2=O"
value_type = "melting point"
recorded_result = "182 to 184 °C"

[[record]]
compound = "Cc1cccc(C=NN2CCN(C3c4ccccc4C=C(C#N)c4ccccc43)CC2)n1 (configuration not stated)"
value_type = "melting point"
recorded_result = "200 to 202 °C"

[[record]]
compound = "CC1(C)CCCC(C)(C)N1Cc1ccc2cc(NC(=O)N3CCC(c4ccc(Cl)cc4)CC3)ccc2n1"
value_type = "melting point"
recorded_result = "203 to 204 °C"

[[record]]
compound = "CCc1cccc2c3c([nH]c12)C(CC)(CC(C)O)OCC3 (configuration not stated)"
value_type = "melting point"
recorded_result = "103 to 104 °C"

[[record]]
compound = "COc1c(CO)n(C)c(=O)c2ccc(Cl)cc12"
value_type = "melting point"
recorded_result = "195 to 196 °C"

[[record]]
compound = "O=[N+]([O-])c1ccc(-n2ccnc2)cc1"
value_type = "melting point"
recorded_result = "150 °C"

[[record]]
compound = "COc1cc2c(cc1Br)C(=CNc1ccc(N3CCN(C)CC3)cc1)C(=O)NC2=O"
value_type = "melting point"
recorded_result = "274 to 276 °C"

[[record]]
compound = "Cc1cc(-n2nc(C(F)F)cc2-c2ccc(S(C)(=O)=O)cc2)ccc1F"
value_type = "melting point"
recorded_result = "154 to 155 °C"

[[record]]
compound = "COc1ccc(C2=NC(NC(=O)Nc3ccc(C(=O)c4ccccc4)cc3)c3nnc(C)n3-c3ccccc32)cc1 (configuration not stated)"
value_type = "melting point"
recorded_result = "225 °C"

[[record]]
compound = "CCCN=C(N)Nc1ccnc(C(CCC)C(=N)N)n1 (configuration not stated)"
value_type = "melting point"
recorded_result = "202 to 205 °C"

[[record]]
compound = "O=C1c2cccc3c([N+](=O)[O-])ccc(c23)C(=O)N1O"
value_type = "melting point"
recorded_result = "255 to 260 °C"

[[record]]
compound = "Cc1cccc2c(-c3ccccc3)onc12"
value_type = "melting point"
recorded_result = "73 to 75 °C"

